Assay: inhibitors of TNFa-induced NFkB p65 translocation, primary screen, imaging, HUVEC, MLSMR starter and 10KST1 sets (AID 438);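 note: compound added about 3h40 before a 20 min TNFalpha stimulation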
Settings: HUVEC TNFa-induced p65 nuclear translocation; measured here: nuclei count (cytotoxicity indicator), at 2.08 µM
ASSAY METRIC: cell count
Answers are plain numbers.

INSERT INTO results (compound, data_value) VALUES
  ('O=C(C1CCN(c2nnc(-n3cccc3)s2)CC1)N1CCN(Cc2ccc3c(c2)OCO3)CC1', 707);

Parameters: items (list). Returns: cell count for each item.
1. c1ccc2nc(-c3nc4ccccc4[nH]3)ccc2c1
2. COc1cc(Cn2c(-c3nonc3N)nc3ccccc32)ccc1C
3. O=C(CN1C(=O)COc2ccccc21)NCCN1CCc2ccccc2C1
4. CCC1C(=O)n2nc(-c3ccccc3)cc2N=C1C (stereo unspecified)
5. O=C(CN1C(=O)CSC1=O)Nc1ccc(N2CCOCC2)cc1
6. COC(=O)CN1C(=O)C(O)(CC(=O)c2ccc(C)cc2)c2cc(Br)ccc21 (stereo unspecified)

OUTPUT:
574
329
681
330
700
612

Please state cell count for every compound in the list that follows.
1. CC(C)(C)C(=O)OCC1OC(n2cnc(C(N)=O)n2)C(O)C1O (stereo unspecified)
2. CCC(=O)Nc1nn(C)c2nc3c(C)cccc3cc12
3. CCn1c(SCC(=O)NCc2ccco2)nc2c(c1=O)SC(C)C2 (stereo unspecified)

OUTPUT:
[468, 724, 368]

INPUT: What value of cell count has been reported for the following compound? Cc1ccc(O)c(-c2cc(C(=O)Nc3ccc(S(=O)(=O)N4CC(C)OC(C)C4)cc3)[nH]n2)c1 (stereo unspecified)
OUTPUT: 371

---

For each record, write down the corresponding inhibition.
Assay: endothelial E-selectin expression blockers – imaging, HUVEC, immunofluorescence, MLSMR starter and 10KST1 sets, primary screen (AID 487);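 note: signal is fraction of cell area covered by stained E-selectin grains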
Details: HUVEC TNFalpha-induced E-selectin immunofluorescence imaging, at 2 µM; stronger effect = higher value
Give bare numbers, in %.

INSERT INTO results (compound, unit, data_value) VALUES
  ('Cc1cc(=O)n2[nH]c(-c3ccc(Cl)cc3)cc2n1', '%', 46.6),
  ('CCOc1ccc(NS(=O)(=O)c2cc(Cl)ccc2OC)cc1', '%', -147),
  ('Cc1ccnc(N2CCN(C(=O)CSc3nc4ccccc4nc3N3CCCCC3)CC2)c1', '%', -13.7),
  ('CC(=O)Nc1ccccc1OCC(=O)c1cc(C)n(Cc2cccs2)c1C', '%', -54.1),
  ('O=C(CSc1nc2ccccc2c(=O)n1Cc1ccco1)NCc1ccccc1', '%', -6.6);

Give measured inhibition for every item shown.
1. COc1ccccc1NC(=O)CSc1nnc(-c2ccncc2)o1
2. O=C1NCC(COCc2ccccc2)O1 (stereo unspecified)
3. CC(=O)N(CCc1ccccc1C)Cc1cc2cc3c(cc2[nH]c1=O)OCO3
4. Cc1ccccc1OCc1nc2ccccc2c(=O)n1/N=C/c1ccco1

OUTPUT:
1. -23.6
2. 25.1
3. -68.1
4. -47.5

Look at each compound and report its inhibition.
1. O=C(COC(=O)C1=COCCO1)Nc1ccccc1Oc1ccccc1
2. CCCNC(=O)c1c(N)n(-c2cc(OC)cc(OC)c2)c2nc3ccccc3nc12

OUTPUT:
1. -33.5
2. -89.1
